# assay.overview: yeast display, Sf9 membrane polyspecificity reagent, FACS + sequencing; frameworks hold sequencing errors
quantity: polyreactivity (PSR sort gate)

The following sequences have reported results that may help.
- QVQLVESGGGLVQAGGSLRLSCAASGSTFSLNDRGWYRQAPGKERELVAVISSSTGITYYADSVKGRFTISRDNAKYTVYLQMNSLKPEDTAVYYCNADKWEVYYTRMYYWGQGTQVTVSS: low polyreactivity
- QVQIVESGGGLVQAGGSHRLSCAATGLTFKYYAMGWYIQAPGKERELVAAISRSGGSTYYADSVKGRFTISRDNAKNTVYLQKNSLKPEDTAVYYCNARAGRYYSVYYPGDYWGQGTQVTVSS: high polyreactivity
- QVQLVESGGGLVQAGGSLRLSCAASGFIFPYYAMGWYRQAPGKERELVAANSRRGTSTFYADSVKGRFTISRDNAKNNVYLQMNSLKTEDTAVYYCNAEYGIGDDSWVQGTQVTVSS: high polyreactivity
- QVQLVESGGGLVQAVGSLRLSCAASGSTFRGYTMGWYRQEPGKERELVSAINWSGGDTYYADSVKGRFTISRDNAKNTVYLQMNSLKPEDTAVYYCNTRHTYPQSFILRRDYWGQGTQVTVSS: low polyreactivity
- QVQLVESGGGLVQAGGSLRLSCAASGYIFGWYTMGWYRQAPGKERELVAAISGGGRTYYADSVKGRFTISRDNAKNTVYLQMNSLKPEDTAVYYCNDYSSYIKYDYWGQGTQVTVSS: high polyreactivity
- QVQLVESGGGLVQAGGSLRLSCAASGSTFPAYAMGWYRQAPGKERELVAGISSGGRTYYADSVKGRFTISRDNAKNTVYLQMNSLKPEDTWVYYCAAFRFYWQRPERYYYWGQGTQVTVSS: high polyreactivity
- QVQLVESGGGLVQAGGSLRLSCPASGYIFYRNAMVWYRQAPGKERELVAAITYTGGRTYYADSVKGRFTISRDNAKNTVYLQMNSLNPEDTAVYYCNADGRVFVVRPYYDYEYWGQGTQVTVSS: low polyreactivity
- QVQLVESGGGLVQAGGSLRLSCAASGSTFYGYTMGWYRQAPGKERELVAAITSGDSTYYADSVKGRFTISRDNAKNTVYLQINSLKPEDTAVYYCATDWDVEYYWTEYYYWGQGTQVTVSS: high polyreactivity

Bench note: what polyreactivity (PSR sort gate) did QVQLVESGVGLVKAGGSLRLTCAASGSIFDNYPMGWYIQAPGKERELVAAISGRGGSTYYADSVKGRFTISRDNAKNSVYLQMNSLKPEVTAVYYCNALVHQTYYDYEYWGQGTQVTVSS show? high polyreactivity

Check QVQLVESGGGLVQAGGSLRLSCAASGSIIILYAMGWYRQAPGKERELVAAISLRGGRTYYADSVKGRFTISRDNAKNTVYLQMNSLKPEVTSVYYCATPVTNGFDYWGQGTQVTVSS too. high polyreactivity

// query: QVQLVESGGGLVQAGGSLRLSCAASGYIILLYAMGWYRQAPGKERELVAAISTRDGSTYYADSVKGRFTISRDNGKITVYLQMNSLNPEDTAVYYCATLYYYNYCGQGTQVTVSS high polyreactivity

###

# assay.overview: yeast display, Sf9 membrane polyspecificity reagent, FACS + sequencing; frameworks hold sequencing errors
quantity: polyreactivity (PSR sort gate)

// worked examples, polyreactivity (PSR sort gate) included
- QLQLVESGRGLVQAGGSLRISCDASGSTFRRNAMGWYRPAPGKERELVAAITRGGGSTYYADSVKGRLTISRDNAKNTVYLQMNSLKPDDTAVYYCAAQISATRETMDYWGQGTQVTVSS: high polyreactivity
- QVHLVESGGGLVQAGGSLRLSCAASGSIFGDNTMGWYRQAPGKERELVAAISQSSGTSTYYADSVKGRFTISRDNAKNTVYFQMNSLKPEDTAVYYCAKDPHGSDFGYWGQVTQVTVSS: low polyreactivity
- QVQLVESGGGLVQAGGSLRLSCAASGSTFRGYAMGWYRQAPGKERELVATITSGGSTKYADSVKGRFTISRDNAKNTVYLQMNSLKPEDTAVYYCNAVPRSWSPYSHWFDYWGQGTQVTVSS: low polyreactivity
- QVQLVESGGGLVQAGGSLRLSCAASGSIFSYYDMGWYRQAPGKERELVAAITTGGSTNYADSVKGRFTISRDNAKNTVYLQMNSLKPEDTAVYYCNAGRWWSRGYGYWGQVTQVTVSS: high polyreactivity

Query sequence follows.
Please look up its polyreactivity (PSR sort gate): QVQLVESGGGLVQAGGSLRLSCAASGRTVSSNAMGWYRQAPGKERELVASISFRGGRTYYADSVKGRFTISRDNAKNPVYLQMNSLKPEDTADYYCVSGTKRTGYGYWGQGTQVTVSS high polyreactivity

Every entry's value here was drawn from the nanobody polyreactivity screen of Harvey et al. (2022).
